Where do the numbers come from? From the supplement of paper PMC7877785.

self-splicing fitness (ln) values, listed per item
# test protocol: self-splicing fitness, log relative to wild type (ln ratio); higher = more splicing; Tetrahymena group I intron in knt gene, E. coli kanamycin selection, DiMSum; sequences stand for … in CUCUCU…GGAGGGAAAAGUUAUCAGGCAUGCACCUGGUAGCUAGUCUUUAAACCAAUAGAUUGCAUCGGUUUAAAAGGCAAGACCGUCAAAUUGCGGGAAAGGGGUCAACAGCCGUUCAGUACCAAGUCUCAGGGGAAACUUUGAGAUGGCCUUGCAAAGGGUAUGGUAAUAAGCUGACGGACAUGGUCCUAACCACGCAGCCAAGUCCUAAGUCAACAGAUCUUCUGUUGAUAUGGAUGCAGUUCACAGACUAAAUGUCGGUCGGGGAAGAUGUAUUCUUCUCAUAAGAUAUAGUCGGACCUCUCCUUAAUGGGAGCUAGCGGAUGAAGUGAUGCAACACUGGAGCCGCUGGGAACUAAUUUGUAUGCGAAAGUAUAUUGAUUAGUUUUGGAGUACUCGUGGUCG;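 further: selection with 25 µg/mL kanamycin versus none on LB agar overnight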
# condition set: 37 °C
attribute measured: self-splicing fitness (ln)

> print(dat)
          sequence.chain  number
 1  GUAGAGCAAUAUUACGAAUC  -0.812
 2  GUUUAGCAAUAUUACGUCCG   -1.89
 3  UGGUAGCAAUAUUACGCCGG   -0.73
 4  GCAAAGCAAUAUUACGGGAA  -0.474
 5  CUAGAGCAAUAUUACGAAAC   -2.41
 6  AGAUAGCAAUAUUACGUCAC   -2.78
 7  UUUAAGCAAUAUUACGAAAC   -1.01
 8  GCGCAGCAAUAUUACGCCUG   -1.48
 9  UACAAGCAAUAUUACGCUGG   -1.87
10  AUCCAGCAAUAUUACGGAUC   -3.11
11  ACUGAGCAAUAUUACGGCCG  -0.752
12  UUUAAGCAAUAUUACGUAUC   -1.84
13  CGCUAGCAAUAUUACGACUC   -1.61
14  GACGAGCAAUAUUACGUAAG  -0.245
15  GCCAAGCAAUAUUACGCCAU   -3.45
16  UCUGAGCAAUAUUACGAUGG  -0.717
